# tested system: ERβ (Homo sapiens, UniProt Q92731)
# Sequence (Q92731 whole entry, species assumed): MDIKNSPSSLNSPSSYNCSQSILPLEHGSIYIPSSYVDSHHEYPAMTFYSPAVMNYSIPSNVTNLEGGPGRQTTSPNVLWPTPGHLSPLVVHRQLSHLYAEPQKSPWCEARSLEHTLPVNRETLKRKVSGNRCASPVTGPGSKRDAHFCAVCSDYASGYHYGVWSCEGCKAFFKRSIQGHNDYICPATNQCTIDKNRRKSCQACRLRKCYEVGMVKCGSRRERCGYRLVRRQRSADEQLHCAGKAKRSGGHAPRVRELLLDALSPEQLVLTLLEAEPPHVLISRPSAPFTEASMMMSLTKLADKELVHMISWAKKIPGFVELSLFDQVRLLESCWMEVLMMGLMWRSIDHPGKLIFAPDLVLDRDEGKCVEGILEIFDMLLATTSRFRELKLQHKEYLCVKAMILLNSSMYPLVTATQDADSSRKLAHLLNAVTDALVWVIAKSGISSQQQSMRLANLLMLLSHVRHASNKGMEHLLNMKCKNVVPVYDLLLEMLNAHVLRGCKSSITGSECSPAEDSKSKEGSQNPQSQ
pIC50: −log10 of the molar value.
measured attribute: pIC50

Prompt: Record lookup: for ERβ (Homo sapiens, UniProt Q92731), what pIC50 belongs to C[C@]12CC[C@H]3[C@@H](CCC4=CC(=O)C=C[C@@]43O)[C@@H]1CC[C@@H]2O [DHED, 10β,17β-dihydroxyestra-1,4-dien-3-one] ?
Completion: < 5.00

----------
# Tested on: lipid peroxidation
# procedure text: Inhibition of lipid peroxidation, thiobarbituric acid reactive substances
# Format: biochemical
# setup conditions: read-out: Inhibition of lipid peroxidation: IC50, TBARS; average ± SEM, n = 3
measured attribute: pIC50
As a rule, pIC50 stands for the negative log10 of the concentration, concentration in M.

Prompt: Which measured pIC50 belongs to C[C@]12CC[C@@H]3c4ccc(O)cc4CC[C@H]3[C@@H]1CC[C@@H]2O [Compound E2, 17β-estradiol, reference compound] , tested on lipid peroxidation?
Completion: 5.41

----------
# procedure text: physchem
measured attribute: solubility (µg/mL)
# number only, unit µg/mL dropped from output

Prompt: What measured solubility goes with C[C@]12CC[C@H]3[C@@H](CCC4=CC(=O)C=C[C@@]43O)[C@@H]1CC[C@@H]2O [DHED, 10β,17β-dihydroxyestra-1,4-dien-3-one] ?
Completion: 60.3

----------
# Tested on: lipid peroxidation
# procedure text: Inhibition of lipid peroxidation, ferric thiocyanate
# Type: biochemical
# setup conditions: read-out: Inhibition of lipid peroxidation: IC50, FTC; average ± SEM, n = 3
measured attribute: IC50 (µM)
Kindly provide the numeric value in µM only, without the unit symbol.

Prompt: What IC50 appears in the records for this compound with lipid peroxidation? C[C@]12CC[C@@H]3c4ccc(O)cc4CC[C@H]3[C@@H]1CC[C@@H]2O [Compound E2, 17β-estradiol, reference compound]
Completion: 11.8

----------
# tested system: ERα (Homo sapiens)
# Sequence (P03372 1-595): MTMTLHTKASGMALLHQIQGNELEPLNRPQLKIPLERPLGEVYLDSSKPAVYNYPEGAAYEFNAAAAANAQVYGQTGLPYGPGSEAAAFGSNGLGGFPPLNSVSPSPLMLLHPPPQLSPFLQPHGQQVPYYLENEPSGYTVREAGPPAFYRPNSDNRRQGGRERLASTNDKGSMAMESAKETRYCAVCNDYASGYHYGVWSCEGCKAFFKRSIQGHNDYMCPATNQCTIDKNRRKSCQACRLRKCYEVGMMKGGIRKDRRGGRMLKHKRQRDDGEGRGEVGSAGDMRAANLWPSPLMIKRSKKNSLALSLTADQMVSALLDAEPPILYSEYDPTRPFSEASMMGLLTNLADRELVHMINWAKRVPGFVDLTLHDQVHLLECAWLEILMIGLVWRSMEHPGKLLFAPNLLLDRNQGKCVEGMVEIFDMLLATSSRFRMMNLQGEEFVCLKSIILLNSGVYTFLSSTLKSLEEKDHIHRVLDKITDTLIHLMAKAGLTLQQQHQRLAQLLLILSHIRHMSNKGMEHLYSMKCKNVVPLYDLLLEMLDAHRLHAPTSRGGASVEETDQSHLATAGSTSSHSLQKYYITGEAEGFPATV
pIC50: −log10 of the molar value.
measured attribute: pIC50

Prompt: I have this compound here, C[C@]12CC[C@H]3[C@@H](CCC4=CC(=O)C=C[C@@]43O)[C@@H]1CC[C@@H]2O [DHED, 10β,17β-dihydroxyestra-1,4-dien-3-one] , and I need its recorded pIC50.
Completion: < 5.00

Each recorded value in this set is attributed to paper PMC4591937.
